Test system: DU-145
Assay: NCI tumour cell line growth inhibition, 48 h
Calls of active or inactive are those of the source. Cut-off read from the data, not from the text of the source: active = GI50 up to about 1.1 µM and inactive = higher.
assay.readout: GI50

Some molecules with recorded GI50:
CCOC(=O)C1CCC(=O)N1C(=O)c1ccccc1 (centres undefined) | > 100 µM (inactive)
CC1=CC[C@@H]2[C@@H](CC[C@@]2(C)O)C(C)(C)[C@H]1CC[C@@H]1[C@@]2(C)CC[C@@H](O)C(C)(C)O[C@@H]2CC[C@]1(C)O | 36.3 µM (inactive)
O=C(O)CCC(NC(=O)c1ccc(Nc2nc3cc(C(F)(F)F)ccc3nc2C(=O)O)cc1)C(=O)O (centres undefined) | > 100 µM (inactive)

Now for another entry.
Supply GI50 value. Item: O=C(c1ccc([N+](=O)[O-])cc1)C(Br)C(Br)c1ccnc2ccccc12 (centres undefined) 11.8 µM (inactive)

* * *

# GI50 per record follows
Test system: COLO 205
Assay: NCI tumour cell line growth inhibition, 48 h
Calls of active or inactive are those of the source. No stated cut-off is given here; in the data, active = GI50 up to about 1.1 µM and inactive = higher.

Solved entries:
O=c1c2c(-c3ccccc3)onc2n(-c2ccccc2)c(=O)n1-c1ccccc1 | > 100 µM (inactive)
C=CC(C)(O)CCC1C(=C)C(O)CC2C(C)(C)CCCC12C (stereo not given) | 16 µM (inactive)
NS(=O)(=O)c1ccc(N=C2C(=O)Nc3ccccc32)cc1 | 13.1 µM (inactive)
CCCCOC(=O)NC(=O)c1cn(CCCOC(=O)NCCCCCCNC(=O)OCCCn2cc(C(=O)NC(=O)OCCCC)c(=O)[nH]c2=O)c(=O)[nH]c1=O | > 100 µM (inactive)

Complete the entry with GI50 for O=C(/C=C/c1ccc(O)cc1)c1ccc2c(c1)OCO2 14.7 µM (inactive)

* * *

// reported GI50 per item
System: TK-10
Experiment: NCI tumour cell line growth inhibition, 48 h
Activity calls are given as the source filed them. Cut-off read from the data, not from the text of the source: active = GI50 up to about 1.1 µM and inactive = higher. Residues, ends and D or L forms follow the SMILES beside them. *: point of attachment. Boc = CC(C)(C)OC(=O)*; OBn = c1ccc(CO*)cc1

CC(C)C(NC(=O)C(Cc1ccccc1)NC(=O)OC(C)(C)C)C(=O)NCC(=O)OCc1ccccc1 (stereo not drawn) (Boc-Phe-Val-Gly-OBn; configuration not given here) | 13 µM (inactive)
Fc1c(F)c(F)c(CSc2nc3ccccc3[nH]2)c(F)c1F | > 100 µM (inactive)

Name the recorded GI50 of the compound listed here: CC1=C(C(=O)Nc2ccc(Cl)c(Cl)c2)C(c2ccco2)C(C(=O)Nc2ccc(Cl)c(Cl)c2)=C(C)N1 6.44 µM (inactive)

Tell me its GI50 given O=C1NC2(NC(=O)C1=O)Nc1ccccc1S2 as the entry. > 100 µM (inactive)

Identify the reported GI50 for the following entry. C#CCOCn1cnc2c(S)ncnc21 > 100 µM (inactive)

* * *

Test system: NCI-H23
Assay: NCI tumour cell line growth inhibition, 48 h
Calls of active or inactive are those of the source. Rule as the data show it: active = GI50 up to about 1.1 µM and inactive = higher.
assay.readout: GI50

Examples with their reported GI50 follow.
O=C1Sc2cc3ccccc3cc2C(=O)Sc2ccc(Br)cc21 | 8.47 µM (inactive)
COc1cc2c(c(OC)c1OC)C(=O)[C@H](O)[C@H]2NC(N)=O | 53.8 µM (inactive)
COc1ccc(C2=Nc3c(nc(OC)[nH]c3=O)NC(c3ccccc3)C2)cc1 (stereo unspecified) | 29.6 µM (inactive)
CN1CCc2c3n(c4cc(Br)ccc24)[C@H](O)CCCC31 (stereo partly specified) | > 10 µM (inactive)
CCOC(=O)NC(Nc1ccc(S(=O)(=O)Nc2ncccn2)cc1)(C(=O)OCC)C(F)(F)F (stereo unspecified) | > 100 µM (inactive)
O=C(/C=C/c1ccccc1Cl)c1cccc2ccccc12 | 12.6 µM (inactive)

Indicate its recorded GI50; the compound in question is CCCCCCCSCC1C(=O)C23C(O)C1CCC2C12COC3(O)C(O)C1C(C)(C)CCC2O (stereo unspecified) 16.3 µM (inactive)

Determine its reported GI50: Cc1ccc2c(c1)C(=O)C1(Cc3ccccc3C1=O)C2 (stereo unspecified) > 100 µM (inactive)

Quickly give me recorded GI50 for Cc1ccc(NC(c2ccccc2)P(=O)(c2ccccc2)c2ccccc2)cc1 (stereo unspecified) > 100 µM (inactive)

Look up GI50 of CC1=CC(C)(C)Nc2ccc(CSc3ccccc3)cc21 and report it. 32.6 µM (inactive)

Tell me GI50 reported for Clc1ccc2c(c1)CC1C[N+]3=C(CCCCC3)C1=C2 (stereo unspecified) 37.4 µM (inactive)

* * *

Test system: PC-3
Assay: NCI tumour cell line growth inhibition, 48 h
The source made the active and inactive calls. No stated cut-off is given here; in the data, active = GI50 up to about 1.1 µM and inactive = higher.
Examples of molecules with documented GI50 follow.

Below, each entry is followed by its recorded GI50 result.
CC(C)(C)c1ccc(-c2nc3ccc(Cl)cc3c(=O)o2)cc1 | 21.5 µM (inactive)
COc1ccccc1NC(=O)C1=C(C)NC(C)=C(C(=O)Nc2ccccc2OC)C1c1ccco1 | 3.47 µM (inactive)
CC(NC(=O)Cc1ccccc1)NC(=O)C(C)C(=O)NCc1ccccc1 (stereo not given) | > 100 µM (inactive)

Answer with GI50 of COc1cc(C2=NNC(=O)c3ccccc3N2c2nc(-c3cccs3)nc3ccc(Br)cc23)cc(OC)c1OC measured for PC-3. 10.3 µM (inactive)

// fetch GI50; item: NS(=O)(=O)c1ccc(NC(=S)NC=C2C(=O)c3ccccc3C2=O)cc1 ; system: PC-3 > 100 µM (inactive)

* * *

# maps each entry to its GI50
Tested on: K562
Test: NCI tumour cell line growth inhibition, 48 h
Calls of active or inactive are those of the source. Cut-off read from the data, not from the text of the source: active = GI50 up to about 1.1 µM and inactive = higher.

Study these solved cases before continuing.
O=C(n1c(=O)n(-c2ccc([N+](=O)[O-])cc2)c(=O)n1C(=O)C(Cl)(Cl)Cl)C(Cl)(Cl)Cl | > 10 µM (inactive)
Nc1cc2nc(O)c(O)nc2cc1N | > 100 µM (inactive)

# return recorded GI50 for input Cc1ccc(/N=N/C(=N/NC(=O)c2ccccc2)c2ccc(N(CCC#N)CCC#N)cc2C)cc1 8.05 µM (inactive)

Check the records and state GI50 for CCOC(=O)c1c(C)n(CCN2CCN(C)CC2)c2ccc(OC)cc12 20.7 µM (inactive)

Answer with reported GI50 of CCCC/C=C1\CCC(C)(CN(C)C)C1=O (stereo not given) > 100 µM (inactive)

Specify GI50 for Cc1nc(-n2[nH]c(C)c(CCO)c2=O)[nH]c(=O)c1CCO and stop. > 100 µM (inactive)

For the compound O=C1C2C3C=C4c5ccccc5N(c5ccccc5)C4(C2C(=O)N1c1ccc(Br)cc1)[C@H]1C(=O)N(c2ccc(Br)cc2)C(=O)[C@@H]31 (stereo not given in full) , give its measured GI50 value. > 100 µM (inactive)

Name the recorded GI50 of the compound listed here: COc1cccc(NC(=O)c2c(N)n[nH]c2SC)c1 > 100 µM (inactive)

Check the records and state GI50 for CCCCCCCCCCCCCCCC(=O)ON1C(=S)NC(C)(c2ccccc2)C1=S (stereo not given) 38.2 µM (inactive)

Respond only with GI50 recorded for CC[S+]([O-])c1c2cc(OC)ccc2nc2ccc(OC)cc12 (stereo not given) 2.42 µM (inactive)

* * *

System: OVCAR-3
Assay: NCI tumour cell line growth inhibition, 48 h
Active and inactive are the calls of the source. No stated cut-off is given here; in the data, active = GI50 up to about 1.1 µM and inactive = higher.
// classify into active, inactive

Worked examples, 5 compounds total:
COc1cc(C2=NNC(=O)c3ccccc3N2c2nc(-c3cccs3)nc3ccc(Br)cc23)cc(OC)c1OC | inactive
N#CC(C#N)=CNC(=S)c1ccncc1 | active
C/C(=N/NC(=O)C(N)=O)C(CC(C(=O)Nc1ccccc1C)/C(C)=N\NC(=O)C(N)=O)C(=O)Nc1ccccc1C (centres undefined) | inactive
NC(=O)N/N=C(/Cc1nc2ccc(C(=O)c3ccccc3)cc2nc1O)C(=O)Nc1ccc(C(F)(F)F)cc1[N+](=O)[O-] | inactive
Cc1cccc2c(N)c3cccc(C(=O)NCC[N+]4(Cc5ccc([N+](=O)[O-])cc5)CCOCC4)c3nc12 | inactive

In this assay, the call recorded for Cc1ccc(/N=N/C(=N/NC(=O)c2ccccc2)c2ccc(N(CCC#N)CCC#N)cc2C)cc1 was what? inactive

What call does the record list for COC(=O)CCC(=O)c1ccc2c(c1)CC1(C2)Cc2ccc(C(=O)CCC(=O)OC)cc2C1 ? inactive

Would you mind telling me which call this test gave CCCc1nc(NC#N)nc(C(=O)Nc2ccccc2)c1CC ? inactive

Write down the call the test reported for this compound. Item: N#Cc1c2c(c(Nc3ccc(Cl)cc3)n3c1nc1ccccc13)CCCC2 inactive

* * *

Measured GI50 on HCT-15 follows.
A number alone suffices; assume µM.

O=C(OC[C@H]1O[C@@H](OC(=O)c2cc(O)c(O)c(O)c2)[C@H](OC(=O)c2cc(O)c(O)c(O)c2)[C@@H](OC(=O)c2cc(O)c(O)c(O)c2)[C@@H]1OC(=O)c1cc(O)c(O)c(O)c1)c1cc(O)c(O)c(O)c1 | 5.21

State GI50 (HCT-15) of CC(C)N(/C(F)=N\C(=O)Nc1ccccc1C(F)(F)F)C(C)C . 34.3
